- assay summary: small-molecule microarray binders of probe aNog, primary screen, biochemical, biotinylated probe, 635/667 nm fluorescence (AID 1115);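 further: probe is biotinylated aNog protein used at 0.15 µg/mL for 1 h at 4 C; z-score combines 667 nm fluorescence of each spot with its signal to noise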
- particulars: higher = more signal
Listed here are molecules together with their documented composite z-score.
// return just the number, without any unit appended

The following molecules have reported results that may help.
CC(c1ccccc1)C(O)C1C=CC2C(=O)N(c3ccccc3)C(=O)C2N1Nc1ccc(C#N)cc1 (stereo not drawn) | 1.45
C[N+](C)(C)CCCCCCNC(=O)[C@@H]1C[C@@H]2C(=O)N[C@@H](Cc3ccccc3)C(=O)N2[C@@H]1c1ccc(O)cc1 | 0.0498

Next, consider the following molecule.
Form field: reported composite z-score of COCCOC(=O)N1C(=O)[C@@]2(c3cc(C#CCC(C(=O)OC)C(=O)OC)ccc31)[C@H](C(N)=O)[C@H]1C(=O)O[C@H](c3ccccc3)[C@H](c3ccccc3)N1[C@@H]2c1ccc(OCCO)cc1
0.177
